Target: FKBP12.6 (Homo sapiens, UniProt P68106)
Sequence (P68106 whole entry): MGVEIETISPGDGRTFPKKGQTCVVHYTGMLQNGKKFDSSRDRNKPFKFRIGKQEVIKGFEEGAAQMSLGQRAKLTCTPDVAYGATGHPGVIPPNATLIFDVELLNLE
Assay: competitive fluorescence polarization assay, binding to FKBP12.6
Conditions: Table 2; read-out: FKBP12.6 Ki
pKi: −log10 of the molar value.
Below: a set of entries, each annotated with reported pKi.

Recorded pKi, per entry:
{"molecule": "COc1ccc(CC[C@H]2OC(=O)[C@@H]3CCCCN3C(=O)[C@@H](C3CCCCC3)NC(=O)C3(CC3)NC(=O)COc3cccc2c3)cc1OC [Compound 86]", "readout": "pKi", "value_observed": "< 4.10"}
{"molecule": "COc1ccc(CC[C@H]2OC(=O)[C@@H]3CCCCN3C(=O)[C@@H](C3CCCCC3)NC(=O)C(C)(C)NC(=O)COc3cccc2c3)cc1OC [Compound 85]", "readout": "pKi", "value_observed": "< 4.10"}
{"molecule": "COc1ccc(CC[C@@H](OC(=O)[C@@H]2CCCCN2C(=O)[C@H](c2cc(OC)c(OC)c(OC)c2)C2CCCCC2)c2cccc(OCC(=O)O)c2)cc1OC [SAFit1, reference compound]", "readout": "pKi", "value_observed": 7.72}
{"molecule": "COc1ccc(CC[C@H]2OC(=O)[C@@H]3CCCCN3C(=O)[C@@H](C3CCCCC3)NC(=O)C3(CCC3)NC(=O)COc3cccc2c3)cc1OC [Compound 87]", "readout": "pKi", "value_observed": "< 4.10"}
{"molecule": "COc1ccc(CC[C@H]2OC(=O)[C@@H]3CCCCN3C(=O)[C@@H](C3CCCCC3)NC(=O)CN(C)C(=O)COc3cccc2c3)cc1OC [Compound 89]", "readout": "pKi", "value_observed": "< 4.10"}

In: Check the records and state pKi for COc1ccc(CC[C@H]2OC(=O)[C@@H]3CCCCN3C(=O)[C@@H](C3CCCCC3)NC(=O)[C@@H](C)NC(=O)COc3cccc2c3)cc1OC [Compound 84]
Out: < 4.10
